Reported metric: melting point

1. CN(C(=O)c1ccccc1)c1sc(C(N)=O)c2c1-c1oncc1CC2 | 197 to 198 °C
2. Cn1cc2c(n1)-c1c(Oc3ccc(C=O)cc3)sc(C(N)=O)c1CC2 | 210 to 211 °C
3. CC(C)(C)OC(=O)c1sc(Nc2ccccc2)c2c1CCc1cnoc1-2 | 148 to 149 °C
4. CCOC(=O)c1sc(C)c2c1CCc1cnn(CC(F)(F)F)c1-2 | 120 to 121 °C
5. CCCCc1sc(C(=O)OCC)c2c1-c1c(cnn1C)CC2 | 80 to 81 °C

###

Catalogue of melting point readings, one per entry.
Reported metric: melting point

1) CNC(=O)c1sc(Nc2ccccc2)c2c1CCc1cnoc1-2 | 193 to 194 °C
2) CCOC(=O)N1C2=C(CCc3csc(Oc4ccccc4)c32)CN1C | 89 to 90 °C
3) NC(=O)c1sc(Nc2ccc(Cl)cc2)c2c1CCc1cnoc1-2 | 224 to 225 °C
4) COc1sc(C(N)=O)c2c1-c1c(cnn1C)CC2 | 154 to 156 °C
5) O=C(O)c1sc(N(C(=O)OCc2ccccc2)c2ccccc2)c2c1CCc1c[nH]nc1-2 | 278 to 279 °C
6) Cn1ncc2c1-c1c(Nc3ccccc3)sc(C(N)=O)c1CC2 | 140 to 141 °C
7) O=C(O)c1sc(Nc2ccc(Cl)cc2)c2c1CCc1cnoc1-2 | 232 to 233 °C (dec.)
8) Cn1cc2c(n1)-c1c(N(C(=O)OCc3ccccc3)c3ccccc3)sc(C(N)=O)c1CC2 | 220 to 221 °C
9) CC(C)OP(=O)(/C=C/c1ccc(Oc2sc(C(N)=O)c3c2-c2nn(C)cc2CC3)cc1)OC(C)C | 216 to 217 °C
10) COc1sc(C(=O)O)c2c1-c1c(cnn1C)CC2 | 250 to 252 °C
11) CN(C(=O)c1ccccc1)c1sc(C(=O)O)c2c1-c1oncc1CC2 | 232 to 233 °C (dec.)
12) CC(C)(C)OC(=O)c1sc(Nc2ccc(Cl)cc2)c2c1CCc1cnoc1-2 | 197 to 198 °C
13) CCOC(=O)c1sc(OC)c2c1CCc1cnn(C)c1-2 | 82 to 84 °C
14) CCOC(=O)c1sc(C)c2c1CCc1cnn(Cc3ccccc3)c1-2 | 131 to 132 °C
15) NC(=O)c1sc(N(C(=O)OCc2ccccc2)c2ccccc2)c2c1CCc1c[nH]nc1-2 | 240 to 241 °C
16) Cn1ncc2c1-c1c(csc1S(C)(=O)=O)CC2 | 192 to 193 °C
17) NC(=O)c1sc(Nc2ccccc2)c2c1CCc1cn[nH]c1-2 | 233 to 234 °C
18) O=C(O)c1sc(Nc2ccccc2)c2c1CCc1cnoc1-2 | 211 to 212 °C (dec.)
19) CCOC(=O)c1sc(C)c2c1CCc1cnn(C)c1-2 | 118 to 119 °C
